target: HIV-1 92BR020 envelope protein (Env) on pseudovirus (HIV-1 isolate 92BR020); assay: cell-based or functional assay
property: IC50 (µg/mL), pseudovirus neutralization

For the binder shown here, 1456_P20 (PG20) (antibody, human IgG1, kappa, V domains shown) VH: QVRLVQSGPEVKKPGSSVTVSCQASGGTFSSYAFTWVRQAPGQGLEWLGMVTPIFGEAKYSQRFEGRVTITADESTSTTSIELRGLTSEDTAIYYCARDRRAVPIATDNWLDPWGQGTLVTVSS VL: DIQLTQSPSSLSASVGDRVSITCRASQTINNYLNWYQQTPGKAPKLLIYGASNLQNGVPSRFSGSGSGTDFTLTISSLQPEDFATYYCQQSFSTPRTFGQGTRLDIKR , give the reported IC50 (µg/mL), pseudovirus neutralization.
> 50 µg/mL
